Target: human C5 (human, UniProt P01031 19-1676)
Assay: cell-based or functional assay
measurement label: Human AP IC50, hemolysis assay, NHS (nM)

- H4H12164P (antibody, human IgG4, V domains shown, H4H: human IgG4 Fc with S108P hinge mutation) VH: EVQLVESGGGLVRSGGSLRLSCAASGFTFNRYAMTWVRQAPGKGLEWVSAISGSGSSTYYTDSVKGRFTISRDNSKNSVDLQMHSLRVEDTAIYYCARGTTVTTGYGMDVWGQGTTVTVSS VL: DIQMTQSPSSLSASVGDRVTFTCQASQDITNSLNWYQQKPGRAPKLLIYDASYLKAGVPSRFSGSGSGTDFTFTISSLQPEDIATYYCQQYDDLPYTFGQGTKLEIK: 14.5
- H4H12168P (antibody, human IgG4, V domains shown, H4H: human IgG4 Fc with S108P hinge mutation) VH: QVQLVESGGGVVQPGGSLRLSCAASGFTFGGHAMHWVRQAPGKGLEWLAVISSDGSNKQYADSVKGRFTISRDNPKNTLYLQMNSLRVGDTAIYYCAKEVAPRYYYYGLDVWGQGTTVTVSS VL: DIQMTQSPSSLSASVGDRVTITCRASQDISNFLAWYQQKPGKVPKLLIYTASTLQSGVPSRFSGSGSGTDFTLTVSSLQPEDVATYYCQKYAGALTFGPGTKVDIK: 28.5
- H4H12171P (antibody, human IgG4, V domains shown, H4H: human IgG4 Fc with S108P hinge mutation) VH: EVQLVESGGGVVRPGGSLRLSCAASGFTFDEYGMTWVRQVPGKGLEWVSGITWNGGFTDYTDSVKGRFTSSRDNAKNSLYLQMNSLRAEDTALYYCARDGYSSSWGAYDIWGQGTMVTVSS VL: DIQMTQSPSSLSASVGDRVTITCRASQSISTYLNWYQQKPGKAPKLLIYAASSLQSGVPLRFSGSGSGTDFTLTISSLQPEDFASYFCQQSYSTPYTFGQGTKLEIK: 15.5
- H4H12175P (antibody, human IgG4, V domains shown, H4H: human IgG4 Fc with S108P hinge mutation) VH: EVQLVESGGGVVQPGGSLRLSCAASGFTFNDYAMHWVRQAPGKGLEWVSLISGDGGNTYYADSVKGRLTISRDNSKNSLYLQMNSLRTEDTALYYCAKDKGWNFGYFDLWGRGTLVTVSS VL: DIQMTQSPSSLSTSVGDRVTITCRASQNIDTYLNWYQQKPGKAPKLLIYDASSLQSGVPSRFSGSGSGTDFTLTITSLQPEDFATYYCQQNDNILHPLTFGGGTKVEIK: 20
- H4H12169P (antibody, human IgG4, V domains shown, H4H: human IgG4 Fc with S108P hinge mutation) VH: EVQLVESGGGLAQPGGSLRLSCAASGFTFRSYAMSWVRQAPGKGPEWVSGIGGNGVTTYYADSVKGRFTISRDNSKNTLFLQMNSLRAEDTAVYYCVQGGLGGYFTGYWGQGTLVTVSS VL: DIQMTQSPSSLSASVGDRVTITCRASQSISTYLNWYQQNPGKAPKLLIFDASSLQSGVPSRFSGSGSGTDFTLTIRGLQPEDFATYYCQQSYSAPLTFGGGTKVEIK: 20
- H4H12167P (antibody, human IgG4, V domains shown, H4H: human IgG4 Fc with S108P hinge mutation) VH: QVQLVESGGGLVKPGGSLRLSCAASGFTFSDSYMSWIRQAPGKGLEWISYIGSSGNTFYYADSVKGRFTISRDNANNLLYLQMTSLRAEDTAVYYCAREEGDFWSAVDSWGQGTLVTVSS VL: DIQLTQSPSFLSASVGDRVTITCWASQGISSYLAWYQQKPGKAPKLLIHTASTLQSGVPSRFSGSGSGTEFTLTISNLQPEDFATYYCQQLNSYPFTFGPGTKVDIK: 15.5
- H4H11686N (antibody, human IgG4, V domains shown, tested with H4H prefix (human IgG4 Fc with S108P hinge mutation); also called H2M11686N) VH: QVQLVESGGGLVKPGGSLRLSCAASGFTFSDYYMSWIRQAPGKGLEWVSYISSSGNTIKYADSMKGRFTISRDNAKKSLFVEMNSLRAEDTAVYYCARYKSSSDYFDHWGQGTLVTVSS VL: EIVLTQSPATLSLSPGERATLSCRASQSVRSYLAWYQQKPGQAPRLLIYDASNRATAIPARFSGSGSGTDFTLTISSLEPEDLAVYYCQQSGNWPLTFGGGTKVEIK: 13
